Source of measurements: ChEMBL document CHEMBL4130603

- Tested on: RAW264.7
- experiment description: Cytotoxicity against mouse RAW264.7 cells at 200 uM measured in presence of LPS by MTT assay
- Assay type: cell-based
- test parameters: raw264.7, 200 µM
measured quantity: Activity

Worked cases, Activity given:
>  <compound>
C=C1C[C@@]23C[C@@H](OC(C)=O)[C@@]4(O)[C@@H]([C@@H](O)[C@H](O)C4(C)C)[C@](C)(O)[C@@H]2CC[C@@H]1[C@H]3O

>  <Activity>
Non-Toxic

$$$$
>  <compound>
CO[C@@H]1[C@H]2[C@@H](C)[C@]34CC[C@H]5C(C)=C[C@]3(C[C@@H](OC(C)=O)[C@]2(O4)C(C)(C)[C@H]1O)[C@@H]5O

>  <Activity>
Non-Toxic

$$$$
>  <compound>
CO[C@@H]1[C@H]2C(C)=C3CC[C@@H]4[C@@H](O)[C@@]3(C[C@@H](OC(C)=O)[C@]2(O)C(C)(C)[C@H]1O)C[C@@]4(C)O

>  <Activity>
Non-Toxic

$$$$
>  <compound>
C=C1[C@@H]2[C@@H](O)[C@H](O)C(C)(C)[C@@]2(O)[C@H](OC(C)=O)C[C@]23C=C(C)[C@H](CC[C@@H]12)[C@H]3O

>  <Activity>
Non-Toxic

$$$$
>  <compound>
C=C1[C@@H]2[C@@H](O)[C@H](O)C(C)(C)[C@@]2(O)[C@H](OC(C)=O)C[C@]23C[C@@](C)(O)[C@H](CC[C@@H]12)[C@H]3O

>  <Activity>
Non-Toxic

$$$$

Q: Give Activity (RAW264.7) of the following compound: C=C1[C@@H]2CC[C@@H]3C[C@@]2(C[C@@H](OC(C)=O)[C@@]2(O)[C@H]1C[C@H](O)C2(C)C)C[C@@]3(C)O
A: Non-Toxic

Q: Field: Activity (RAW264.7). Entry: C=C1[C@@H]2CC[C@@H]3[C@@H](O)[C@@]2(C[C@@H](O)[C@@]2(O)[C@H]1C[C@H](O)C2(C)C)C[C@@]3(C)O
A: Non-Toxic

Q: Lab note: need Activity for C=C1[C@@H]2CC[C@@H]3C[C@@]2(C[C@@H](O)[C@@]2(O)[C@H]1C[C@H](O)[C@]2(C)CO)C[C@@]3(C)O on RAW264.7, anyone have it?
A: Non-Toxic

Q: // fetch RAW264.7 Activity for CC(=O)O[C@@H]1[C@H]2CC[C@H]3[C@@](C)(O)[C@@H]4[C@@H]5O[C@@H]5C(C)(C)[C@@]4(O)[C@H](O)C[C@@]13C[C@@]2(C)O
A: Non-Toxic

Q: # value lookup — system RAW264.7, readout Activity, item CC(=O)O[C@@H]1C[C@]23C=C(C)[C@H](CC[C@H]2[C@@](C)(O)[C@@H]2[C@@H]4O[C@@H]4C(C)(C)[C@@]12O)[C@H]3O
A: Non-Toxic

Q: Tell me reported Activity for CO[C@H]1[C@H](O)C(C)(C)[C@@]2(O)[C@H](OC(C)=O)C[C@]34C[C@@](C)(O)[C@H](CC[C@H]3[C@@](C)(O)[C@H]12)[C@H]4O[C@H]1[C@H](O)C(C)(C)[C@@]2(O)[C@H](OC(C)=O)C[C@]34C[C@@](C)(O)[C@H](CC[C@H]3[C@@](C)(O)[C@H]12)[C@H]4O , tested with RAW264.7.
A: Non-Toxic

Q: Lab note: need Activity with RAW264.7 for entry CC(=O)O[C@@H]1C[C@@]23C[C@]4(C)O[C@@H](C[C@@H]4[C@H]2O)[C@H]3[C@@](C)(O)C2[C@@H]3O[C@@H]3C(C)(C)[C@]21O (some centres not stated) , please look it up.
A: Non-Toxic
